Test system: HEK293
Assay: Metabolic stability in human HEK293 cells assessed as cell lysate-mediated compound degradation at 10^-4 M after 24 hrs by LCMS analysis
Format: ADME, cell-based
Conditions: hek293, 24 h, 100 µM
QUANTITY_NAME: Stability

Problem: Given CC(C)C[C@H](NC(=O)[C@H](C)N)B(O)O , state its recorded Stability.
Result: Stable

Problem: Given CC(C)C[C@H](NC(=O)CN)B(O)O , state its recorded Stability.
Result: Stable

Problem: Given CC(C)C[C@H](NC(=O)[C@@H](N)Cc1ccccc1)B(O)O , state its recorded Stability.
Result: Stable

====

Experiment: Cytotoxicity against human FSCLL cells after 24 hrs by MTT assay
Type: cell-based
QUANTITY_NAME: CC50 at 24 h (nM)
Please respond with the number in nM and leave the unit unwritten.

# annotated cases, reported CC50 at 24 h shown
Problem: Given CC(C)C[C@H](NC(=O)[C@@H](N)C(C)(C)C)B(O)O , state its recorded CC50 at 24 h.
Result: 710

Problem: Given CCC[C@H](N)C(=O)N[C@@H](CC(C)C)B(O)O , state its recorded CC50 at 24 h.
Result: 1100

Problem: Given CC(C)C[C@H](NC(=O)[C@H](CO)NC(=O)c1cnccn1)B(O)O , state its recorded CC50 at 24 h.
Result: 210

Problem: Given CC[C@H](N)C(=O)N[C@@H](CC(C)C)B(O)O , state its recorded CC50 at 24 h.
Result: 1500

Problem: Given CC(C)C[C@H](NC(=O)[C@@H](N)Cc1cccc2ccccc12)B(O)O , state its recorded CC50 at 24 h.
Result: 11

Others:
Problem: Given CC(C)C[C@H](NC(=O)[C@H](Cc1ccccc1)NC(=O)c1cnccn1)B(O)O , state its recorded CC50 at 24 h.
Result: 4

Problem: Given CC(C)C[C@H](NC(=O)[C@H](C)N)B(O)O , state its recorded CC50 at 24 h.
Result: 3200

Problem: Given CC(C)C[C@H](NC(=O)[C@@H](N)Cc1cc(F)cc(F)c1)B(O)O , state its recorded CC50 at 24 h.
Result: 47

Problem: Given CC(C)C[C@H](NC(=O)[C@@H](N)CO)B(O)O , state its recorded CC50 at 24 h.
Result: 1700

Problem: Given CC(C)C[C@H](NC(=O)[C@@H](N)Cc1ccccc1)B(O)O , state its recorded CC50 at 24 h.
Result: 90

Problem: Given CCCC[C@H](N)C(=O)N[C@@H](CC(C)C)B(O)O , state its recorded CC50 at 24 h.
Result: 950

Problem: Given CC(C)C[C@H](NC(=O)[C@@H](N)Cc1c[nH]c2ccccc12)B(O)O , state its recorded CC50 at 24 h.
Result: 400

====

Experiment: Ratio of CC50 for human follicular small-cell lymphocytic leukemia cells to IC50 for intracellular chymotrypsin-like activity of 20S proteasome in human HEK293 cells
# Ratio CC50/IC50 per entry

Problem: Given CC(C)C[C@H](NC(=O)[C@@H](N)CO)B(O)O , state its recorded Ratio CC50/IC50.
Result: <0.2

Problem: Given CNCC(=O)N[C@@H](CC(C)C)B(O)O , state its recorded Ratio CC50/IC50.
Result: <0.07

Problem: Given CCCC[C@H](N)C(=O)N[C@@H](CC(C)C)B(O)O , state its recorded Ratio CC50/IC50.
Result: <0.1

Problem: Given CC(C)C[C@H](NC(=O)[C@H](Cc1ccccc1)NC(=O)c1cnccn1)B(O)O [BORTEZOMIB] , state its recorded Ratio CC50/IC50.
Result: 0.16

Problem: Given CC(C)C[C@H](NC(=O)[C@@H](N)C(C)(C)C)B(O)O , state its recorded Ratio CC50/IC50.
Result: <0.07

Problem: Given CC(C)C[C@H](NC(=O)[C@@H](N)Cc1ccccc1)B(O)O , state its recorded Ratio CC50/IC50.
Result: <0.01

Next up:
Problem: Given CC(C)C[C@H](NC(=O)[C@@H](N)Cc1ccc(F)cc1)B(O)O , state its recorded Ratio CC50/IC50.
Result: <0.01

====

Assay: Inhibition of chymotrypsin-like activity of 20S proteasome using suc-LLVY-AMC as substrate preincubated for 10 mins before substrate addition at pH 7.6 by fluorescence assay
QUANTITY_NAME: IC50 (nM)

Problem: Given CC(C)C[C@H](NC(=O)[C@@H](N)Cc1ccccc1F)B(O)O , state its recorded IC50.
Result: 140

Problem: Given CC(C)C[C@H](NC(=O)[C@H](Cc1ccccc1)NC(=O)c1cnccn1)B(O)O , state its recorded IC50.
Result: 14

Problem: Given CC(C)C[C@H](NC(=O)[C@@H](NC(=O)c1cnccn1)C(C)(C)O)B(O)O , state its recorded IC50.
Result: 28

Problem: Given CC(C)C[C@H](NC(=O)[C@@H](N)C(C)(C)C)B(O)O , state its recorded IC50.
Result: 150

Problem: Given CC(C)C[C@H](NC(=O)[C@@H](N)Cc1ccc(F)c(F)c1)B(O)O , state its recorded IC50.
Result: 150

1: CC(C)C[C@H](NC(=O)[C@@H](N)Cc1ccc(O)cc1)B(O)O
2: CC[C@H](N)C(=O)N[C@@H](CC(C)C)B(O)O
Problem: Lab note: check whether 1 or 2 has the lower measured IC50. Please indicate the selected item by its label.
Result: 1
(1: 120 nM, 2: 300 nM)

====

Test: Inhibition of intracellular chymotrypsin-like activity of 20S proteasome in human HEK293 cells after 24 hrs by fluorescence plate reader
Format: cell-based
Conditions: HEK293, 24 h
pIC50: −log10 of the molar value.
QUANTITY_NAME: pIC50

Problem: Given CC(C)C[C@H](NC(=O)[C@@H](N)Cc1cccc2ccccc12)B(O)O , state its recorded pIC50.
Result: 6.82

P: CC(C)C[C@H](NC(=O)[C@H](CO)NC(=O)c1cnccn1)B(O)O
Q: CC(C)C[C@H](NC(=O)[C@@H](N)Cc1cccc(F)c1)B(O)O
R: CC(C)C[C@H](NC(=O)[C@@H](NC(=O)c1cnccn1)[C@@H](C)O)B(O)O
S: CC(C)C[C@H](NC(=O)[C@@H](N)Cc1ccc2ccccc2c1)B(O)O
Problem: Sort these compounds on pIC50 so the largest reading comes first. To answer, arrange all of the labels according to the requested order.
Result: S, R, Q, P

====

Experiment: Cytotoxicity against human FSCLL cells after 24 hrs by MTT assay
Assay type: cell-based
QUANTITY_NAME: CC50 at 24 h (nM)
Please respond with the number in nM and leave the unit unwritten.

# annotated cases, reported CC50 at 24 h shown
Problem: Given CC(C)C[C@H](NC(=O)CN)B(O)O , state its recorded CC50 at 24 h.
Result: 670

Problem: Given CC(C)C[C@H](NC(=O)[C@@H](N)Cc1ccc(O)cc1)B(O)O , state its recorded CC50 at 24 h.
Result: 160

Problem: Given CNCC(=O)N[C@@H](CC(C)C)B(O)O , state its recorded CC50 at 24 h.
Result: 160

Problem: Given CC(C)C[C@H](NC(=O)[C@@H](N)[C@@H](C)O)B(O)O , state its recorded CC50 at 24 h.
Result: 2500

Others:
Problem: Given CC(C)C[C@H](NC(=O)[C@@H](N)Cc1ccc(F)cc1)B(O)O , state its recorded CC50 at 24 h.
Result: 79

Problem: Given CC(C)C[C@H](NC(=O)[C@@H](NC(=O)c1cnccn1)[C@@H](C)O)B(O)O , state its recorded CC50 at 24 h.
Result: 100

====

Assay: Ratio of CC50 for human follicular small-cell lymphocytic leukemia cells to IC50 for chymotrypsin-like activity of 20S proteasome at pH 2.0
QUANTITY_NAME: Ratio CC50/IC50
Lab note: record the figure alone, no unit after it.

Problem: Given CC(C)C[C@H](NC(=O)[C@@H](NC(=O)c1cnccn1)[C@@H](C)O)B(O)O , state its recorded Ratio CC50/IC50.
Result: 8

Problem: Given CNCC(=O)N[C@@H](CC(C)C)B(O)O , state its recorded Ratio CC50/IC50.
Result: 4.1

Problem: Given CC(C)C[C@H](NC(=O)[C@@H](N)[C@@H](C)O)B(O)O , state its recorded Ratio CC50/IC50.
Result: 30

Problem: Given CC(C)C[C@H](NC(=O)[C@@H](N)CO)B(O)O , state its recorded Ratio CC50/IC50.
Result: 8.9

Problem: Given CC(C)C[C@H](NC(=O)CN)B(O)O , state its recorded Ratio CC50/IC50.
Result: 30

Others:
Problem: Given CC(C)C[C@H](NC(=O)[C@H](CO)NC(=O)c1cnccn1)B(O)O , state its recorded Ratio CC50/IC50.
Result: 13

Problem: Given CC(C)C[C@H](NC(=O)[C@@H](N)Cc1ccc(O)cc1)B(O)O , state its recorded Ratio CC50/IC50.
Result: 4

Problem: Given CC(C)C[C@H](NC(=O)[C@@H](N)Cc1cccc2ccccc12)B(O)O , state its recorded Ratio CC50/IC50.
Result: 0.4

Problem: Given CC(C)C[C@H](NC(=O)[C@H](Cc1ccccc1)NC(=O)c1cnccn1)B(O)O [BORTEZOMIB] , state its recorded Ratio CC50/IC50.
Result: 0.4

Problem: Given CC(C)C[C@H](NC(=O)[C@@H](N)Cc1c[nH]c2ccccc12)B(O)O , state its recorded Ratio CC50/IC50.
Result: 14

Problem: Given CC(C)C[C@H](NC(=O)[C@@H](N)Cc1ccccc1)B(O)O , state its recorded Ratio CC50/IC50.
Result: 2.4

Problem: Given CC[C@H](N)C(=O)N[C@@H](CC(C)C)B(O)O , state its recorded Ratio CC50/IC50.
Result: 14

Problem: Given CC(C)C[C@H](NC(=O)[C@@H](N)Cc1cc(F)cc(F)c1)B(O)O , state its recorded Ratio CC50/IC50.
Result: 1

Problem: Given CC(C)C[C@H](NC(=O)[C@H](C)N)B(O)O , state its recorded Ratio CC50/IC50.
Result: 64

Problem: Given CCCC[C@H](N)C(=O)N[C@@H](CC(C)C)B(O)O , state its recorded Ratio CC50/IC50.
Result: 13

Problem: Given CCC[C@H](N)C(=O)N[C@@H](CC(C)C)B(O)O , state its recorded Ratio CC50/IC50.
Result: 10

Problem: Given CC(C)C[C@H](NC(=O)[C@@H](N)Cc1ccc(F)cc1)B(O)O , state its recorded Ratio CC50/IC50.
Result: 1.3

Problem: Given CC(C)C[C@H](NC(=O)[C@@H](N)C(C)(C)C)B(O)O , state its recorded Ratio CC50/IC50.
Result: 7
